The reported measurements were obtained from the RNAGym collection of RNA variant scans (doi:10.1002/anie.201605470).

B1: Osa-1-4 twister ribozyme (parent)
chain: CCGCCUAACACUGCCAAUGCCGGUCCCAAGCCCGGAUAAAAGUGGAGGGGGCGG

Variants of: B1
PROCEDURE_TEXT: self-cleavage, relative activity (ratio to wild type); higher = more cleavage; co-transcriptional
ATTRIBUTE_MEASURED: self-cleavage

Record C14U C20G . Reported self-cleavage: 0.05

Record C32A U43G . Reported self-cleavage: 0.05

// next entry
Record A40U C21G . Reported self-cleavage: 0.05
